Reported pKi for target or system arginase (Homo sapiens, UniProt P05089), by entry.
Scale explanation: pKi corresponds to minus log10 of a concentration expressed in moles per litre.

                                   molecule                             assay_system  test_result
0  N[C@@H](CCCCB(O)O)C(=O)O [ABH, 2(s)-amino-6-boronohexanoic acid]  arginase (Homo sapiens, UniProt P05089)         6.00

// query What value of pKi has been reported for the following molecule? N[C@@H](CSCCB(O)O)C(=O)O
// result 5.31
